# Procedure details: Autosampler stability of extracted dog plasma samples at 4 °C
# Format: physicochemical
# Measurement context: 24 hours autosampler 4 °C

{"Compound": "O=c1ccn([C@@H]2O[C@H](COP(=O)(O)O)[C@@H](O)C2(F)F)c(=O)[nH]1 [dFdUMP]", "Unit info": "%", "%-ACC (% accuracy vs nominal)": 92.6}
{"Compound": "CCCCCN(C)CCC(O)(P(=O)(O)O)P(=O)(O)OP(=O)(O)OC[C@H]1O[C@@H](n2ccc(N)nc2=O)C(F)(F)[C@@H]1O (stereo partly drawn) [GEM-IB]", "Unit info": "%", "%-ACC (% accuracy vs nominal)": 86.2}
{"Compound": "Nc1ccn([C@@H]2O[C@H](CO)[C@@H](O)C2(F)F)c(=O)n1 [GEM, gemcitabine]", "Unit info": "%", "%-ACC (% accuracy vs nominal)": 100.7}
{"Compound": "Nc1ccn([C@@H]2O[C@H](COP(=O)(O)O)[C@@H](O)C2(F)F)c(=O)n1 [GEMMP, gemcitabine-5′-phosphate]", "Unit info": "%", "%-ACC (% accuracy vs nominal)": 92.4}
{"Compound": "CCCCCN(C)CCC(O)(P(=O)(O)O)P(=O)(O)O [IB, ibandronate]", "Unit info": "%", "%-ACC (% accuracy vs nominal)": 111.2}
{"Compound": "O=c1ccn([C@@H]2O[C@H](CO)[C@@H](O)C2(F)F)c(=O)[nH]1 [dFdU, 2′,2′-difluoro-2′-deoxyuridine]", "Unit info": "%", "%-ACC (% accuracy vs nominal)": 99.0}

###

# Lookup of reported %-ACC (percent mean accuracy vs nominal) keyed by entry
# Procedure details: Stability in dog plasma (accelerated, freeze-thaw, frozen PK samples)
# Type: in vitro ADME
# Measurement context: dog plasma, 24 hours 4°C

{"Molecule": "Nc1ccn([C@@H]2O[C@H](COP(=O)(O)O)[C@@H](O)C2(F)F)c(=O)n1 [GEMMP, gemcitabine-5′-phosphate]", "%-ACC (percent mean accuracy vs nominal) (%)": 88.1}
{"Molecule": "O=c1ccn([C@@H]2O[C@H](CO)[C@@H](O)C2(F)F)c(=O)[nH]1 [dFdU, 2′,2′-difluoro-2′-deoxyuridine]", "%-ACC (percent mean accuracy vs nominal) (%)": 105.3}
{"Molecule": "Nc1ccn([C@@H]2O[C@H](CO)[C@@H](O)C2(F)F)c(=O)n1 [GEM, gemcitabine]", "%-ACC (percent mean accuracy vs nominal) (%)": 94.8}
{"Molecule": "O=c1ccn([C@@H]2O[C@H](COP(=O)(O)O)[C@@H](O)C2(F)F)c(=O)[nH]1 [dFdUMP]", "%-ACC (percent mean accuracy vs nominal) (%)": 85.2}
{"Molecule": "CCCCCN(C)CCC(O)(P(=O)(O)O)P(=O)(O)OP(=O)(O)OC[C@H]1O[C@@H](n2ccc(N)nc2=O)C(F)(F)[C@@H]1O (stereo partly drawn) [GEM-IB]", "%-ACC (percent mean accuracy vs nominal) (%)": 83.6}
{"Molecule": "CCCCCN(C)CCC(O)(P(=O)(O)O)P(=O)(O)O [IB, ibandronate]", "%-ACC (percent mean accuracy vs nominal) (%)": 108.8}

###

# Procedure details: Stability in dog plasma (accelerated, freeze-thaw, frozen PK samples)
# Type: in vitro ADME
# Measurement context: dog plasma, 24 hours RT
# Method: For stability testing, QC samples were prepared by spiking plasma with QC stock solutions. […] Freeze–thaw cycle stability was assessed by storing the stability samples overnight in the freezer (<−70 °C) and thawing them the next day on the bench. […] Method development and validation was conducted following applicable FDA guidelines for bioanalytical assays, as considered fit for purpose. […] Intra-day imprecision and accuracy were determined with n = 6 per QC level. […]
# Lookup of reported %-ACC (percent mean accuracy vs nominal) keyed by entry
Parameter measured: %-ACC (percent mean accuracy vs nominal) (%)

{"Compound": "Nc1ccn([C@@H]2O[C@H](CO)[C@@H](O)C2(F)F)c(=O)n1", "Number": 95.4}
{"Compound": "O=c1ccn([C@@H]2O[C@H](COP(=O)(O)O)[C@@H](O)C2(F)F)c(=O)[nH]1", "Number": 80.5}
{"Compound": "CCCCCN(C)CCC(O)(P(=O)(O)O)P(=O)(O)O [IB, ibandronate]", "Number": 118.5}
{"Compound": "O=c1ccn([C@@H]2O[C@H](CO)[C@@H](O)C2(F)F)c(=O)[nH]1", "Number": 98.4}
{"Compound": "CCCCCN(C)CCC(O)(P(=O)(O)O)P(=O)(O)OP(=O)(O)OC[C@H]1O[C@@H](n2ccc(N)nc2=O)C(F)(F)[C@@H]1O (stereo partly drawn)", "Number": 13.7}
{"Compound": "Nc1ccn([C@@H]2O[C@H](COP(=O)(O)O)[C@@H](O)C2(F)F)c(=O)n1 [GEMMP, gemcitabine-5′-phosphate]", "Number": 98.2}

###

# Procedure details: Proof-of-concept dog PK study, plasma levels of GEM-IB and metabolites by HPLC-MS/MS
# Assay type: in vivo, beagle dogs
# Measurement context: beagle, iv, after GEM-IB 5 mg/kg 30 min i.v. infusion
# Lookup of reported Tmax keyed by entry

{"Compound": "Nc1ccn([C@@H]2O[C@H](CO)[C@@H](O)C2(F)F)c(=O)n1", "Tmax": "30 min"}
{"Compound": "Nc1ccn([C@@H]2O[C@H](COP(=O)(O)O)[C@@H](O)C2(F)F)c(=O)n1 [GEMMP, gemcitabine-5′-phosphate]", "Tmax": "30 min"}
{"Compound": "O=c1ccn([C@@H]2O[C@H](CO)[C@@H](O)C2(F)F)c(=O)[nH]1", "Tmax": "270 min"}
{"Compound": "CCCCCN(C)CCC(O)(P(=O)(O)O)P(=O)(O)O [IB, ibandronate]", "Tmax": "30 min"}
{"Compound": "O=c1ccn([C@@H]2O[C@H](COP(=O)(O)O)[C@@H](O)C2(F)F)c(=O)[nH]1", "Tmax": "30 min"}
{"Compound": "CCCCCN(C)CCC(O)(P(=O)(O)O)P(=O)(O)OP(=O)(O)OC[C@H]1O[C@@H](n2ccc(N)nc2=O)C(F)(F)[C@@H]1O (stereo partly drawn)", "Tmax": "30 min"}

###

# Procedure details: Stability in mouse plasma (accelerated, freeze-thaw, frozen PK samples)
# Assay type: in vitro ADME
# Measurement context: mouse plasma, 3 freeze-thaw cycles (<−70 °C / bench)
hey, just use YES if measured %-ACC (% accuracy vs nominal) is less than 90%, otherwise NO

{"Molecule": "Nc1ccn([C@@H]2O[C@H](CO)[C@@H](O)C2(F)F)c(=O)n1 [GEM, gemcitabine]", "Group label": "NO"}
{"Molecule": "CCCCCN(C)CCC(O)(P(=O)(O)O)P(=O)(O)OP(=O)(O)OC[C@H]1O[C@@H](n2ccc(N)nc2=O)C(F)(F)[C@@H]1O (stereo partly drawn) [GEM-IB]", "Group label": "YES"}
{"Molecule": "O=c1ccn([C@@H]2O[C@H](CO)[C@@H](O)C2(F)F)c(=O)[nH]1 [dFdU, 2′,2′-difluoro-2′-deoxyuridine]", "Group label": "NO"}
{"Molecule": "CCCCCN(C)CCC(O)(P(=O)(O)O)P(=O)(O)O [IB, ibandronate]", "Group label": "NO"}

###

# Procedure details: Proof-of-concept dog PK study, plasma levels of GEM-IB and metabolites by HPLC-MS/MS
# Type: in vivo, beagle dogs
# Measurement context: beagle, iv, after GEM-IB 5 mg/kg 30 min i.v. infusion, analyte = parent or metabolite
Parameter measured: log10(Cmax) (log10 of the value in ng/mL)

{"Compound": "O=c1ccn([C@@H]2O[C@H](CO)[C@@H](O)C2(F)F)c(=O)[nH]1", "log10(Cmax)": 2.52}
{"Compound": "CCCCCN(C)CCC(O)(P(=O)(O)O)P(=O)(O)OP(=O)(O)OC[C@H]1O[C@@H](n2ccc(N)nc2=O)C(F)(F)[C@@H]1O (stereo partly drawn)", "log10(Cmax)": 2.90}
{"Compound": "O=c1ccn([C@@H]2O[C@H](COP(=O)(O)O)[C@@H](O)C2(F)F)c(=O)[nH]1", "log10(Cmax)": 1.36}
{"Compound": "CCCCCN(C)CCC(O)(P(=O)(O)O)P(=O)(O)O [IB, ibandronate]", "log10(Cmax)": 3.68}
{"Compound": "Nc1ccn([C@@H]2O[C@H](CO)[C@@H](O)C2(F)F)c(=O)n1", "log10(Cmax)": 2.84}
{"Compound": "Nc1ccn([C@@H]2O[C@H](COP(=O)(O)O)[C@@H](O)C2(F)F)c(=O)n1 [GEMMP, gemcitabine-5′-phosphate]", "log10(Cmax)": 2.35}

###

# Lookup of reported Cmax keyed by entry
# Procedure details: Proof-of-concept mouse PK study, plasma levels of GEM-IB and metabolites by HPLC-MS/MS
# Format: in vivo, mice
# Measurement context: ip, after GEM-IB 5 mg/kg i.p., analyte = parent or metabolite

{"Compound": "CCCCCN(C)CCC(O)(P(=O)(O)O)P(=O)(O)OP(=O)(O)OC[C@H]1O[C@@H](n2ccc(N)nc2=O)C(F)(F)[C@@H]1O (stereo partly drawn) [GEM-IB]", "Cmax (ng/mL)": 4180}
{"Compound": "O=c1ccn([C@@H]2O[C@H](CO)[C@@H](O)C2(F)F)c(=O)[nH]1 [dFdU, 2′,2′-difluoro-2′-deoxyuridine]", "Cmax (ng/mL)": 832}
{"Compound": "CCCCCN(C)CCC(O)(P(=O)(O)O)P(=O)(O)O [IB, ibandronate]", "Cmax (ng/mL)": 22800}
{"Compound": "O=c1ccn([C@@H]2O[C@H](COP(=O)(O)O)[C@@H](O)C2(F)F)c(=O)[nH]1 [dFdUMP]", "Cmax (ng/mL)": 130}
{"Compound": "Nc1ccn([C@@H]2O[C@H](COP(=O)(O)O)[C@@H](O)C2(F)F)c(=O)n1 [GEMMP, gemcitabine-5′-phosphate]", "Cmax (ng/mL)": 1310}
{"Compound": "Nc1ccn([C@@H]2O[C@H](CO)[C@@H](O)C2(F)F)c(=O)n1 [GEM, gemcitabine]", "Cmax (ng/mL)": 2120}
